# TEST SYSTEM: human activated kallikrein enzyme (Homo sapiens (Human))
# Sequence (P03952 391-638): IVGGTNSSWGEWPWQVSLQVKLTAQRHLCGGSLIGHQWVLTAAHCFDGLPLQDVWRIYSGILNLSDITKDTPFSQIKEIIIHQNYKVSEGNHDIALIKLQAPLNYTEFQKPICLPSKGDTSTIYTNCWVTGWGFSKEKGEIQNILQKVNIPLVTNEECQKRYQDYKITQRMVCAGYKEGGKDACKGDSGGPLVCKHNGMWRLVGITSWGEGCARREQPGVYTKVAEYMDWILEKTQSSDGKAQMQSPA
# Sequence (P03952 20-390 partner): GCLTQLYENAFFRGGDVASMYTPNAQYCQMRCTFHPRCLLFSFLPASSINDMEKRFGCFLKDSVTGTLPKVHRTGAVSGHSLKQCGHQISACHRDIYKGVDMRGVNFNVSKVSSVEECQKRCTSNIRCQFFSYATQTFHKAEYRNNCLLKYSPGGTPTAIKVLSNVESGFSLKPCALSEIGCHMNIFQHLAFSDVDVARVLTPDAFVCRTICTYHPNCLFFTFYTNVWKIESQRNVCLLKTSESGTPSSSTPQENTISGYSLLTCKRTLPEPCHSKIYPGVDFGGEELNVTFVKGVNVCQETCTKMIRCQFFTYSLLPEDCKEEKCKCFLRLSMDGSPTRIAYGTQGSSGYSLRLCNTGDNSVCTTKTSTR
# EXPERIMENT SUMMARY: Inhibition of human activated plasma kallikrein, fluorogenic peptide substrate assay, 500 pM enzyme format
# Assay type: biochemical
# MEASUREMENT PARAMETERS: comparative compounds; 500 pM activated kallikrein format; read-out: Primary Dose Response Assay: Average EC50
# Method: Example compounds were evaluated for inhibition of the human activated kallikrein enzyme in two formats of an assay employing a fluorogenic peptide substrate. […] After initiation with substrate, reactions were incubated for 10 min at RT and fluorescence emission at 460 nm from 380 nm excitation measured with a microplate reader. […] After initiation with substrate, reactions were incubated for 18 h at RT and fluorescence emission at 460 nm from 380 nm excitation measured with a microplate reader.
QUANTITY MEASURED: EC50

Which measured EC50 belongs to Cc1ccn2cc(Cn3cc(C(=O)NCc4cnc5ccc(Cl)cn45)cn3)nc2c1 [reference compound] , tested on human activated kallikrein enzyme (Homo sapiens (Human))?
100 to 2000 nM
